Experiment: Clinical pharmacokinetics of PU-H71 in plasma and urine
Type: in vivo, human
Details: human, plasma, iv, 80 mg/m^2
measured-property: AUC(0-t) (µM·h)

{"columns": ["structure", "unit-of-measure", "experimental-value"],
 "data": [
  ["CC(C)NCCCn1c(Sc2cc3c(cc2I)OCO3)nc2c(N)ncnc21", "µM·h", 15]
]}

----------
Assay: Clinical pharmacokinetics of PU-H71 in plasma and urine
Format: in vivo, human
Settings: human, plasma, iv, 40 mg/m^2
measured-property: half-life (h)

{"columns": ["structure", "measured-property", "experimental-value"],
 "data": [
  ["CC(C)NCCCn1c(Sc2cc3c(cc2I)OCO3)nc2c(N)ncnc21", "half-life", 9.2]
]}

----------
Assay: Clinical pharmacokinetics of PU-H71 in plasma and urine
Type: in vivo, human
Conditions: human, plasma, iv, 60 mg/m^2

{"columns": ["molecule", "unit-of-measure", "half-life"],
 "data": [
  ["CC(C)NCCCn1c(Sc2cc3c(cc2I)OCO3)nc2c(N)ncnc21 [PU-H71]", "h", 6.1]
]}

----------
Test: Clinical pharmacokinetics of PU-H71 in plasma and urine
Assay type: in vivo, human
Settings: human, plasma, iv, 266 mg/m^2
measured-property: AUC(0-t) (µM·h)

{"columns": ["structure", "measured-property", "experimental-value"],
 "data": [
  ["CC(C)NCCCn1c(Sc2cc3c(cc2I)OCO3)nc2c(N)ncnc21", "AUC(0-t)", 59.9]
]}

----------
Test: Clinical pharmacokinetics of PU-H71 in plasma and urine
Format: in vivo, human
Conditions: human, plasma, iv, 470 mg/m^2

{"columns": ["compound", "AUC(0-t), µM·h"],
 "data": [
  ["CC(C)NCCCn1c(Sc2cc3c(cc2I)OCO3)nc2c(N)ncnc21 [PU-H71]", 143]
]}

----------
Experiment: Clinical pharmacokinetics of PU-H71 in plasma and urine
Format: in vivo, human
Settings: human, plasma, iv, 354 mg/m^2
measured-property: clearance (mL/min/kg)

{"columns": ["compound", "experimental-value"],
 "data": [
  ["CC(C)NCCCn1c(Sc2cc3c(cc2I)OCO3)nc2c(N)ncnc21 [PU-H71]", 2.17]
]}

----------
Assay: Clinical pharmacokinetics of PU-H71 in plasma and urine
Type: in vivo, human
Details: human, plasma, iv, 20 mg/m^2

{"columns": ["structure", "unit-of-measure", "AUC(0-t)"],
 "data": [
  ["CC(C)NCCCn1c(Sc2cc3c(cc2I)OCO3)nc2c(N)ncnc21", "µM·h", 1.23]
]}

----------
Assay: Clinical pharmacokinetics of PU-H71 in plasma and urine
Type: in vivo, human
Details: human, plasma, iv, 354 mg/m^2

{"columns": ["compound", "AUC(0-inf) [µM·h]"],
 "data": [
  ["CC(C)NCCCn1c(Sc2cc3c(cc2I)OCO3)nc2c(N)ncnc21 [PU-H71]", 180]
]}

----------
Assay: Clinical pharmacokinetics of PU-H71 in plasma and urine
Format: in vivo, human
Settings: human, plasma, iv, 60 mg/m^2

{"columns": ["structure", "clearance"],
 "data": [
  ["CC(C)NCCCn1c(Sc2cc3c(cc2I)OCO3)nc2c(N)ncnc21", "10.5 mL/min/kg"]
]}
